Test system: HCT-116 colon
Assay: NCI-60 one-dose screen, 48 h (100 = growth as untreated, 0 = no growth, -100 = all killed)
Details: 10 µM unless noted
Compounds without any hit were thinned out: in the full panel of roughly 83,000, 20% have a hit.
Mark 1 (yes) for growth under 40%, 0 (no) if at or over.

Compound: Cc1cc(Cl)nc(N(CCCNc2ccnc3cc(Cl)ccc23)Cc2ccccn2)n1
Group Label: 1 (yes)
--
Compound: CC(C)(C)CC(C)(C)Nc1c(-c2ccc(-c3ccccc3)cc2)nc2cnccn12
Group Label: 0 (no)
--
Compound: COc1ccc(-c2cc(-c3ccc(Nc4nc(Nc5ccccc5)nc(Nc5ccc(Cl)cc5)n4)cc3)nc(N)n2)cc1
Group Label: 1 (yes)
--
Compound: COc1cc2c(cc1OC)-c1ccc3cc4c(cc3c1N(CCCN1CCCCC1)C2)OCO4
Group Label: 1 (yes)
--
Compound: CCCCCOC(=O)c1ccc(NC(=O)CNCC(C)C)cc1
Group Label: 0 (no)
--
Compound: CCCCCCNc1cc(C)nc2ccc(OC)cc12
Group Label: 1 (yes)
--
Compound: COc1ccc(-c2c(N)n[nH]c2-c2ccccc2O)cc1OC
Group Label: 0 (no)
--
Compound: CC(=O)NCC(=O)Nc1ccc(-c2nnc3ccccn23)nc1.CC(=O)NCC(=O)Nc1ccc(-c2nnc3ccccn23)nc1.[Pt+2]
Group Label: 0 (no)
--
Compound: CCOC(=O)C1=C(C)NC(SCc2nnc(-c3ccc(Cl)cc3)o2)=NC1c1ccc(Cl)cc1Cl (stereo not given)
Group Label: 1 (yes)

###

System: NCI/ADR-RES ovarian
Experiment: NCI-60 one-dose screen, 48 h (100 = growth as untreated, 0 = no growth, -100 = all killed)
Conditions: 10 µM unless noted
The panel holds about 83,000 compounds, 20% with a hit somewhere; the sample as a whole holds those more often.

Molecule: C=C(CNCCc1ccc(O)cc1)[C@@H]1CC[C@]2(COC3CCCCO3)CC[C@]3(C)[C@H](CC[C@@H]4[C@@]5(C)CCC(NCCO)C(C)(C)[C@@H]5CC[C@]43C)[C@@H]12 (some centres undefined)
growth / %: -79.3

Molecule: Cc1ccc(S(=O)(=O)Nc2sccc2-c2nc(-c3ccccc3)no2)cc1
growth / %: 99.2

Molecule: O[C@H]1CO[C@H]2[C@@H]1OC[C@@H]2Oc1ccc(Nc2nc(Nc3ccc(F)c(Cl)c3)ncc2F)cc1Cl
growth / %: 97.6

Molecule: N=c1ccn2c(n1)OC1C(O)C(CO)OC12 (centres undefined)
growth / %: 31.8

###

System: SF-539 CNS
Experiment: NCI-60 one-dose screen, 48 h
Conditions: 10 µM unless noted
The panel holds about 83,000 compounds, 20% with a hit somewhere; the sample as a whole holds those more often. The source made the active and inactive calls. The calls were made as follows: active = growth percent below 10; inactive = the rest.
Outcome codes: True for active, False for inactive

Compound Smiles: CC(/C=N/NC(=O)c1cc(-c2ccco2)[nH]n1)=C\c1ccccc1
Group Label: False

Compound Smiles: CCNCCNc1cc(-c2cccc(C(F)(F)F)c2)c(C#N)c2nc3ccccc3n12
Group Label: True

Compound Smiles: N#Cc1cccc(-c2nc3ccccn3c2NCCN2CCOCC2)c1
Group Label: False

Compound Smiles: Cn1ccc(Cc2cnc(N)s2)n1
Group Label: False

Compound Smiles: CCCn1nc(-c2ccccc2)c2c(-c3ccccc3)onc2c1=O
Group Label: False

Compound Smiles: COc1ccc(-c2cc(-c3cc(OC)ccc3O)[nH]c(=O)c2C#N)cc1
Group Label: False

Compound Smiles: CCn1c(Sc2nnc(Nc3ccccc3)s2)nc2c1c(=O)n(C)c(=O)n2C
Group Label: False

Compound Smiles: N#C/C(=C\c1ccc(Br)cc1)n1nnc2ccccc21
Group Label: True

Compound Smiles: Cc1[nH]c(-c2nc3ccccc3[nH]2)c(C)c1C(=O)N1CCc2sccc2C1
Group Label: False

Compound Smiles: C[C@@H]1C(=O)N(C[C@H](Cc2ccccc2)N(Cc2ccccc2)Cc2ccccc2)[C@]1(Cc1ccccc1)C(=O)OC(C)(C)C
Group Label: False

###

System: SK-MEL-5 melanoma
Assay: NCI-60 one-dose screen, 48 h (100 = growth as untreated, 0 = no growth, -100 = all killed)
Settings: 10 µM unless noted
The panel holds about 83,000 compounds, 20% with a hit somewhere; the sample as a whole holds those more often. Activity calls are given as the source filed them. Rule for the calls: active = growth percent below 10; inactive = the rest.
Listing of entries alongside the reported growth.

Compound: CC(C)(C)N1CC(OC(N)=O)C1
growth: 102% (inactive)

Compound: Cc1c(C(=O)O)nnn1-c1nccs1
growth: 99.6% (inactive)

Compound: O=S(=O)(NCCNc1cc(-c2c(-c3cccc(O)c3)nc3sccn23)ccn1)c1ccc(Cl)cc1
growth: 30.7% (inactive)

Compound: O=C(Oc1ccc([N+](=O)[O-])cc1)c1ccc(CBr)cc1
growth: 95.2% (inactive)

Compound: COC(=O)Nc1nc2ccc(C(=O)C3CC3)cc2[nH]1
growth: 8.13% (active)

Compound: COc1ccc(C2CC(c3ccccc3)=NN2c2nc(C)c(C(C)=O)s2)cc1 (stereo unspecified)
growth: 103% (inactive)

Compound: CC(C)(C)OC(=O)N1Cc2cc3ccccc3nc2C1CO (stereo unspecified)
growth: 96.9% (inactive)

Compound: CCc1c(C(=O)N[C@@H]2c3cc(Cl)ccc3CC[C@@H]2O)[nH]c(C)c1C(C)=O
growth: 45% (inactive)

Compound: NC(N)=N/N=C(/c1ccccc1)c1ccccc1F
growth: 15.8% (inactive)

Compound: O=C1C=CC(=Nc2cc(Br)c(O)c(Br)c2)C=C1
growth: 87.4% (inactive)

Compound: N#Cc1cnn2c(-c3ccc(Cl)cc3)nc(NCCc3ccccc3)nc12
growth: 99.8% (inactive)

###

Test system: UO-31 renal
Assay: NCI-60 one-dose screen, 48 h
Conditions: 10 µM unless noted
The panel holds about 83,000 compounds, 20% with a hit somewhere; the sample as a whole holds those more often. Active and inactive are the calls of the source. The calls were made as follows: active = growth percent below 10; inactive = the rest.
Outcome codes: active, inactive

Compound: Cc1c2c(cn1Cc1ccccc1)CCc1cn[nH]c1-2
Group Label: inactive
//
Compound: N#Cc1cccc(-c2nc3ccccn3c2NCCN2CCOCC2)c1
Group Label: inactive
//
Compound: CCNCCNc1cc(-c2ccc(C#N)cc2)c(C#N)c2nc3ccccc3n12
Group Label: active
//
Compound: C=C1c2c(C)nn(-c3ccc(S(N)(=O)=O)cc3)c2N(C)C23CC1C1(C)c4c(C)nn(-c5ccc(S(N)(=O)=O)cc5)c4N(C)C(C)(CC12)C3 (stereo not given)
Group Label: inactive
//
Compound: CCN(CC)CCCC(C)NCc1ccccc1 (stereo not given)
Group Label: inactive
//
Compound: NC(=O)CC1(O)C=C(Br)C(=O)C(Br)=C1
Group Label: active
//
Compound: Clc1ccc(/C=N\N=c2\scc(-c3ccc(Cl)cc3)n2/N=C/c2ccc(Cl)cc2)cc1
Group Label: inactive
//
Compound: Cc1ccc(/C(=N\N=C(N)N)c2ccccc2)cc1
Group Label: inactive
//
Compound: CN1CCN(c2ccc(Nc3ncc(Cl)c(NC[C@@H]4CCCO4)n3)cc2)CC1
Group Label: active
//
Compound: COc1cc2oc(-c3cccc(C(=O)Nc4ccc(C#N)cc4)c3)cc(=O)c2c(O)c1OC
Group Label: inactive
//
Compound: COc1ccc(Cn2cnc3cc(C(=O)Nc4cccc5ccccc45)ccc32)c(OC)c1
Group Label: inactive
//
Compound: COc1cc(/C=C/C(=O)c2cccc(-n3cc(-c4ccccc4)[nH]c3=O)c2)cc(OC)c1OC
Group Label: active
//
Compound: O=S(=O)(Nc1ccsc1-c1nc(-c2ccccc2)no1)c1cc(Cl)cc(Cl)c1
Group Label: inactive
//
Compound: COC(=O)Nc1nc2ccc(C(=O)C3CC3)cc2[nH]1
Group Label: active
//
Compound: C=C(C)[C@@H]1CC[C@]2(CNCCO)CC[C@]3(C)[C@H](CC[C@@H]4[C@@]5(C)CCC(N)[C@@](C)(CO)[C@@H]5CC[C@]43C)[C@@H]12 (stereo not given in full)
Group Label: inactive
//
Compound: CNC(=O)c1cc(Oc2ccc3nc(Nc4cc(Cl)cc(Cl)c4)ccc3c2)ccn1
Group Label: inactive
//
Compound: COc1ccc(OC)c(C(=O)Nc2cccc(-c3cc(=O)c4ccccc4o3)c2)c1
Group Label: inactive
//
Compound: Cc1nc(Nc2ccc(NC(=S)Nc3ccccc3)cc2)nc2nc(Nc3ccc(S(=O)(=O)O)cc3)[nH]c(=O)c12
Group Label: inactive
//
Compound: N=C(N)c1ccc(-c2ccc(/C=C/c3ccccc3)s2)cc1
Group Label: inactive
//
Compound: O=c1[nH]nc(-c2ccc(Cl)cc2)cc1Cc1ccccc1
Group Label: inactive

###

System: RPMI-8226 leukemia
Assay: NCI-60 one-dose screen, 48 h (100 = growth as untreated, 0 = no growth, -100 = all killed)
Conditions: 10 µM unless noted
The panel holds about 83,000 compounds, 20% with a hit somewhere; the sample as a whole holds those more often.
// thresholds for growth classes: bucket 1: < 50%; bucket 2: ≥ 50% and < 90%; bucket 3: ≥ 90%

Compound: C=C(C=O)[C@@H]1CC=C(C=O)CC1
Group Label: bucket 1
//
Compound: O=C(/C=C/C12c3ccccc3C(c3ccccc31)C1C(=O)N(c3ccc(Cl)cc3)C(=O)C12)c1ccccn1 (configuration not stated)
Group Label: bucket 1
//
Compound: NC(N)=N/N=C(/c1ccccc1)c1ccc(N)cc1
Group Label: bucket 3
//
Compound: COc1ccccc1C(=O)NC(=S)Nc1ccc(-c2nc3ccccc3[nH]2)cc1
Group Label: bucket 2
//
Compound: O=C1Nc2ccccc2SC1c1ccccc1Cl (configuration not stated)
Group Label: bucket 2
//
Compound: COc1cc2oc3cc(C)oc(=O)c3c2cc1OC
Group Label: bucket 2
//
Compound: CCOC(=O)c1nnn(-c2ccccc2)c1C1=CN(C)CCC1
Group Label: bucket 3
//
Compound: C/C(=N\NC(N)=S)c1nc2ccc(Cl)cc2[nH]1
Group Label: bucket 2
//
Compound: COc1cc(/C=C/C(=O)c2cccc(-n3cc(-c4ccccc4)[nH]c3=O)c2)cc(OC)c1OC
Group Label: bucket 1
//
Compound: CC(=O)Nc1cccc(C2=CC(c3ccc(C)cc3)n3ncnc3N2)c1 (configuration not stated)
Group Label: bucket 2
//
Compound: CN(C)c1ccc(/C=C/c2c(F)cccc2F)cc1
Group Label: bucket 3
